Biological target: UniProt:O75116
Sequence (O75116 whole entry, looked up, change not shown): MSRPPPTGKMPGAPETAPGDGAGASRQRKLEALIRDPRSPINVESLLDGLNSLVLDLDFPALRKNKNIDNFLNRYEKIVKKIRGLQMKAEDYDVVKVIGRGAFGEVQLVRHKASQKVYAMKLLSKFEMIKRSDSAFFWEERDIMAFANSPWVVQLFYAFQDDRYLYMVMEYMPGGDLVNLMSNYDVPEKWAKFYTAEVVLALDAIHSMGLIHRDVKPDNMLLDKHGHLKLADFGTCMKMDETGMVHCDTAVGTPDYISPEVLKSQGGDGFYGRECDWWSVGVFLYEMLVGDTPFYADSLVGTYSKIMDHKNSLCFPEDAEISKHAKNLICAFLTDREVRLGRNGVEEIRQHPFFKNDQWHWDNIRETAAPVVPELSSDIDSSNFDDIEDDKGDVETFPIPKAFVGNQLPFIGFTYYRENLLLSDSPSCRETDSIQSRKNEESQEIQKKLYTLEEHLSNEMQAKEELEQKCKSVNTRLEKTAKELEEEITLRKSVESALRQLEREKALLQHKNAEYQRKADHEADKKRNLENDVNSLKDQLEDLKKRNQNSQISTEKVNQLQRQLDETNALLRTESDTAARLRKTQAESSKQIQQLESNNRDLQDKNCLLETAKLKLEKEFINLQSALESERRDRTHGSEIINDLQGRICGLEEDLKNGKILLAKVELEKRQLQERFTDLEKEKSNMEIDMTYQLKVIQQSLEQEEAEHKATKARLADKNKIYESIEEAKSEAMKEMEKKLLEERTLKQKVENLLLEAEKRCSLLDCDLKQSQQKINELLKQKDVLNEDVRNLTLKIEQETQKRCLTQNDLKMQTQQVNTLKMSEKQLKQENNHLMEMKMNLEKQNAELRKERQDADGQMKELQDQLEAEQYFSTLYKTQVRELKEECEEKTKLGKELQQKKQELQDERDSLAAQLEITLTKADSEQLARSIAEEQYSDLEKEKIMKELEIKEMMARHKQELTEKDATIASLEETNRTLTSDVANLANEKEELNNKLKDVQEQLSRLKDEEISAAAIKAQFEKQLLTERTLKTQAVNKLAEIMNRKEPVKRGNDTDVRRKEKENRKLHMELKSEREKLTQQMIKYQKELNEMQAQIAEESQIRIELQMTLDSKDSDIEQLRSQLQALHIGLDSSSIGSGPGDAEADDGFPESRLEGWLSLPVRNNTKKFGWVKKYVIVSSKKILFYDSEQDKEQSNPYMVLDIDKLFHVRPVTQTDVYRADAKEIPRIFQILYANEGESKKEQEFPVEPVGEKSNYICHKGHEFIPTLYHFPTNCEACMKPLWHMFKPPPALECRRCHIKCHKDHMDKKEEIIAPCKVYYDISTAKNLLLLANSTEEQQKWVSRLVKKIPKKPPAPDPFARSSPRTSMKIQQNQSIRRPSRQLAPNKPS
Experiment: In Vitro Assay: The effectiveness of compounds of the present invention as ROCK inhibitors can be determined in a 30 μL assay containing 20 mM HEPES, pH 7.5, 20 mM MgCl2, 0.015% Brij-35, 4 mM DTT, 5 μM ATP and 1.5 μM peptide substrate (FITC-AHA-AKRRRLSSLRA-OH) (SEQ ID No. 1). Compounds were dissolved in DMSO so that the final concentration of DMSO was <2%, and the reaction was initiated with Rho kinase variants. After incubation, the reaction was terminated by the addition of EDTA and the phosphorylated and non-phosphorylated peptides separated using a LABCHIP® 3000 Reader (Caliper Life Sciences). […] Compounds were tested in dose-response format, and the inhibition of kinase activity was calculated at each concentration of compound. The inhibition data were fit using a curve-fitting program to determine the IC50; i.e., the concentration of compound required to inhibit 50% of kinase activity.
measured_metric: IC50 (nM)
Field format: number, assumed nM, no unit text.

Data request: Assign IC50 to the following record: `Cc1sc(C(=O)Cc2ccc(Oc3ncccc3C(N)=O)cc2)nc1-c1ccccc1`
Data returned: 87
